- System: Fibrinogen (Alexa647-labelled)
- PROCEDURE_SUMMARY: fibrinogen binders on compound microarrays, profiling panel, artefact control for SMM control-protein annotation, biochemical, small-molecule microarray, 635/667 nm fluorescence (AID 1131);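 also: z-score merges 667 nm fluorescence with per-spot signal-to-noise over triplicate slides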
- REPORTED_CONDITIONS: fibrinogen-A647 binding fluorescence, higher = more signal
As shown below, each of these compounds has a reported composite z-score value.

Observe how each entry below is paired with its result.
# COMPOUND, VALUE_REPORTED
rows = [
    ("COCCOC(=O)N1C(=O)[C@@]2(c3cc(C#CC4=CCCCC4)ccc31)[C@H](c1ccccc1OCCO)N1[C@H](c3ccccc3)[C@H](c3ccccc3)OC(=O)[C@H]1[C@@H]2C(=O)N1CCc2cc(OC)c(OC)cc2C1", 0.764),
    ("COC(=O)[C@@]1(Cc2ccccc2)[C@H]2c3cc(C(=O)N4CCCC4)n(Cc4cc(F)cc5c4OCOC5)c3C[C@H]2CN1C(=O)c1ccccc1", 0.963),
    ("C[n+]1ccc(CCCO)cc1", -1.48),
]

**Q:** Fibrinogen (Alexa647-labelled) / composite z-score / Cc1ccc(S[C@]2(C(=O)O)CC(=O)N(Cc3ccccc3Cl)[C@@H]2c2ccc(CO)cc2)cc1 : value?
**A:** -0.271

**Q:** Fibrinogen (Alexa647-labelled) / composite z-score / Cc1ccc(S[C@]2(C(=O)NCc3ccccc3)CC(=O)N(C(C)C)[C@@H]2c2ccc(CO)cc2I)cc1 : value?
**A:** -0.956

**Q:** Fibrinogen (Alexa647-labelled) / composite z-score / CCOC(=O)[C@H]1C/C=C/C[C@H](C(=O)OCC)C(=O)O[C@H]2[C@@H](OC)O[C@H](CO)[C@@H](OC(=O)CCc3ccccc3)[C@@H]2OC1=O : value?
**A:** 0.0772

**Q:** Fibrinogen (Alexa647-labelled) / composite z-score / C[C@H]1ON(c2ccc(C(=O)OC(C)(C)C)cc2)[C@@H](c2ccc(O)cc2)[C@@H]1C(=O)N1C(=O)OC[C@@H]1c1ccccc1 : value?
**A:** 0.935

**Q:** Fibrinogen (Alexa647-labelled) / composite z-score / CC(C)c1ccc(NN2C(C(O)c3ccco3)C=CC3C(=O)N(c4ccccc4)C(=O)C32)cc1 (stereo unspecified) : value?
**A:** 0.995

**Q:** Fibrinogen (Alexa647-labelled) / composite z-score / [N-]=[N+]=Nc1ccccc1C[C@@]1(C(=O)O)N=C(c2ccc(OCCCO)cc2)O[C@@H]1c1ccccc1 : value?
**A:** 0.997

**Q:** Fibrinogen (Alexa647-labelled) / composite z-score / CCOC(=O)C[C@H]1[C@H](OC(=O)c2ccc(-c3ccccc3)cc2)[C@@H](NC(=O)c2ccc3ccccc3n2)c2cc(OCCCO)ccc2N1C(=O)c1ccccc1 : value?
**A:** 0.702

**Q:** Fibrinogen (Alexa647-labelled) / composite z-score / CC=CC(O)C1C=CC2C(=O)N(C)C(=O)C2N1N1CCCCC1 (stereo unspecified) : value?
**A:** 0.714

**Q:** Fibrinogen (Alexa647-labelled) / composite z-score / COCCOC(=O)N1C(=O)[C@@]2(c3cc(C#CCC(C(=O)OC)C(=O)OC)ccc31)[C@H](c1ccc(OCCO)cc1)N1[C@H](c3ccccc3)[C@H](c3ccccc3)OC(=O)[C@H]1[C@@H]2C(=O)N1CCN(c2ncccn2)CC1 : value?
**A:** 0.947
